Quick reference: cell number of the listed items.
Tested on: HCC1569
Assay: cell number relative to DMSO (% of DMSO); higher = more cells (less growth inhibition / toxicity)
Details: concentration: 10 µM; 24 h
Field format: numeric only.

# Compound, cell number
measured = [
    ("CCn1nc(C(=O)O)c(=O)c2cc3c(cc21)OCO3", 97.6),
    ("COC1(NC(=O)CSCC#N)C(=O)N2C(C(=O)[O-])=C(CSc3nnnn3C)CSC21.[Na+] (stereo not drawn) [Cefmetazole sodium]", 101),
    ("CCC=CCC=CCC=CCC=CCC=CCC=CCCC(=O)O", 99.8),
    ("COc1ccc(-n2c(SCC#N)nc3sc4c(c3c2=O)CCCC4)cc1", 91.9),
    ("CCCCN1CC(O)C(O)C(O)C1CO (stereo not drawn)", 100),
]

Query the reported cell number for HCC1569; item: "Cn1cc(C2=C(c3cn(CCCSC(=N)N)c4ccccc34)C(=O)NC2=O)c2ccccc21"
53.9

Report cell number for "CCOC(=O)[C@H](CCc1ccccc1)N[C@@H](C)C(=O)N1C(=O)N(C)C[C@H]1C(=O)O.Cl" tested on HCC1569.
107

Please state recorded cell number (tested on HCC1569) of Cl.NC12CC3CC(CC(C3)C1)C2 [Amantadine hydrochloride]
107

Record O=c1c(O)c(-c2ccc(O)cc2O)oc2cc(O)cc(O)c12 [Morine] : what is its cell number with HCC1569?
101

HCC1569 / cell number / CCN(CC)C(=O)c1ccc(O)c(OC)c1 [Vanillic acid diethylamide] : value?
101

Please tell me: cell number of "CCCCCCCCCCCCCCCCn1cc[n+](Cc2ccccc2)c1C.[I-]" , system HCC1569?
99.1

What reported cell number corresponds to Cc1cc(C(C)(C)C)c(O)c(C)c1CC1=NCCN1.Cl [Oxymetazoline hydrochloride] on HCC1569?
104

Give the reported cell number for CC(=O)C1CCC2C3CC=C4CC(OS(=O)(=O)[O-])CCC4(C)C3CCC12C.[Na+] (stereo not drawn) [Pregnenolone sulfate sodium] (system: HCC1569).
105

Look up cell number with HCC1569 for this compound: CC(C)C1CCC(C(=O)NC(Cc2ccccc2)C(=O)O)CC1 (stereo not drawn) [Nateglinide]
105

Under HCC1569: cell number value of Cc1ccc(Cl)c(Nc2ccccc2C(=O)[O-])c1Cl.[Na+] [sodium 2-(2,6-dichloro-3-methylanilino)benzoate] ?
99.4

Recall the recorded cell number for "CCCCCCCCCCCCCCCC(=O)C(F)(F)F" with HCC1569 and state it.
103

Give HCC1569 cell number for CCC(CO)Nc1nc(NCc2ccccc2)c2ncn(C(C)C)c2n1 (stereo not drawn)
93.4

Hello, I am looking for reported cell number with HCC1569 for CN1CCc2cccc3c2C1Cc1ccc(O)c(O)c1-3.Cl [(R)-(-)-Apomorphine.HCl] . Could you help?
98.4

----------
Tested on: HCC1569
Test: H1.0 immunofluorescence intensity relative to DMSO (% of DMSO); higher = stronger H1.0 induction, active = 140 or more
Conditions: concentration: 10 µM; 24 h
Readout name: H1.0 immunofluorescence intensity
Answer with a number only.

Would you please look over these solved cases?
# Molecule, Number
records = [
    ("Cl.N[C@@H](Cc1cnc[nH]1)C(=O)O [L-Histidine hydrochloride]", 95.8),
    ("CCC(C)N(C)C(=O)c1cc2ccccc2c(-c2ccccc2Cl)n1 (centres undefined)", 84),
    ("C#CCN(C)Cc1ccccc1.Cl [Pargyline hydrochloride]", 101),
    ("Cl.NCCc1ccc(O)c(O)c1 [Dopamine hydrochloride]", 89.7),
]

Find the recorded H1.0 immunofluorescence intensity belonging to "CN(C)c1ccnc2sc3c(=O)n(N4CCCCCC4)cnc3c12" and report it.
89.5

I am curious: what H1.0 immunofluorescence intensity value has been reported for CN1CCN(C2=Nc3ccccc3Sc3ccc(Cl)cc32)CC1 [Clothiapine] ?
110

Suppose we examine the molecule COC(=O)c1ccccc1O [Methyl salicylate] ; what H1.0 immunofluorescence intensity value has been reported?
113

Value lookup for H1.0 immunofluorescence intensity; key = O=c1cc(-c2ccccc2)oc2cc(O)ccc12 [7-Hydroxyflavone]
88.8

Value lookup for H1.0 immunofluorescence intensity; key = CCN1C(=CC(C)=O)Sc2ccc(OC)cc21 [Cdc2-Like Kinase Inhibitor, TG003]
119

----------
Tested on: TDF
Assay: H1.0 immunofluorescence intensity relative to DMSO (% of DMSO); higher = stronger H1.0 induction, active = 120 or more
Conditions: concentration: 10 µM; 24 h
Readout name: H1.0 immunofluorescence intensity
Give the figure only, with no unit attached.

Examples with their reported H1.0 immunofluorescence intensity follow.
# Compound, H1.0 immunofluorescence intensity
rows = [
    ("O=C(Nc1ccc(Cl)cc1)c1ccccc1NCc1ccncc1", 96.5),
    ("Nc1nc2ccc(Cl)cc2n2c(-c3ccccc3)nnc12 [8-chloro-1-phenyl[1,2,4]triazolo[4,3-a]quinoxalin-4-ylamine]", 93.9),
    ("CC1=CC(=O)C(C(C)C)=CC1=O", 93.5),
]

Shift focus to the following entry.
Please tell me: H1.0 immunofluorescence intensity of "C=CC(=O)c1ccc2ccccc2c1" , system TDF?
103

----------
cell number reference
Test system: TDF
Assay: cell number relative to DMSO (% of DMSO); higher = more cells (less growth inhibition / toxicity)
Settings: concentration: 10 µM; 24 h
Give the figure by itself; no unit, no explanation.

# Compound, cell number
data = [
    ("Cc1ccccc1N1C(=O)c2cc(S(N)(=O)=O)c(Cl)cc2NC1C (centres undefined)", 110),
]

// query cell number value for entry COc1cc2c(cc1OC)C(c1ccccc1)CN(C)CC2.O=C(O)C=CC(=O)O (centres undefined)
98.3

Form field: reported cell number of "O=C(c1cc2cc(O)ccc2[nH]1)c1cc2cc(O)ccc2[nH]1"
73

I would be grateful if you could share the reported cell number for CCCCS(=N)(=O)CCC(N)C(=O)O (centres undefined) [Buthionine sulfoximine] .
116

# cell number lookup, item CCCCCC=CC=C1C(=O)C=CC1CC=CCCCC(=O)O (centres undefined) [15d-Prostaglandin J2]
102

For the compound shown here, "COc1ccc(-c2cnc3c(-c4ccsc4)cnn3c2)cc1" , give the reported cell number.
95.5

Param item = NC(N)=NC(CCC(=O)O)C(=O)O (centres undefined) ; retrieve measured cell number.
108

Requested field: cell number. Item: "COc1ccc(S(=O)(=O)Nc2cc(Cl)cc(Cl)c2OC)cc1N1CCNCC1.Cl"
100

Which value of cell number has been reported for CCCCCC(O)CC=C1C(=O)C=CC1CC=CCCCC(=O)O (centres undefined) in the records?
96.8

----------
# Lookup of reported cell number keyed by entry
Tested on: TDF
Experiment: cell number relative to DMSO (% of DMSO); higher = more cells (less growth inhibition / toxicity)
Conditions: concentration: 10 µM; 24 h
// no unit, no text: just the number

Known cell number results, listed for orientation:
# Compound, cell number
data = [
    ("C[N+](C)(C)CCCCCC[N+](C)(C)C.[Cl-].[Cl-] [Hexamethonium dichloride]", 99.9),
    ("Cl.O=S(=O)(c1cccc2c(Cl)cccc12)N1CCCNCC1", 104),
    ("CC(=O)OC1CC2(C)C(CC(O)C3C4(C)CCC(O)C(C)C4CCC32C)C1=C(CCC=C(C)C)C(=O)[O-].[Na+] (configuration not stated) [Fusidic acid sodium]", 113),
    ("COc1ccc(C(C)=O)c(O)c1 [Paeonol]", 102),
    ("CC(C)n1c(C=CC(O)CC(O)CC(=O)O)c(-c2ccc(F)cc2)c2ccccc21 (configuration not stated) [Fluvastatin]", 64.5),
    ("N#CC(=Cc1ccc(O)cc1)C(N)=C(C#N)C#N", 96.7),
    ("CCCCC1(C2CCCC2)Cc2cc(OCC(=O)O)c(Cl)c(Cl)c2C1=O (stereo not drawn) [R(+)-Butylindazone]", 107),
    ("O=C1OC(=O)C2C3CCC(O3)C12 (configuration not stated) [Norcantharidin]", 92.3),
]

Please examine the following record next.
I have this compound here, "COc1ccc(CC[C@H]2CCC[C@@H](CCc3ccc(OC)cc3)N2C[C@@H](O)CO)cc1.Cl" , and I need its recorded cell number.
103

----------
Test system: TDF
Assay: H1.0 immunofluorescence intensity relative to DMSO (% of DMSO); higher = stronger H1.0 induction, active = 120 or more
Conditions: concentration: 10 µM; 24 h
// reported H1.0 immunofluorescence intensity per item
Simply state the number, no unit and no words.

# Compound, H1.0 immunofluorescence intensity
data = [
    ("O=c1cc(-c2ccccc2)oc2cc(O)cc(O)c12 [Chrysine]", 93.8),
    ("CC(=O)C(C)=O [2,3-Butanedione]", 85.8),
    ("Cc1ccc(NC(=O)c2ccc(CN3CCN(C)CC3)cc2)cc1Nc1nccc(-c2cccnc2)n1 [Imatinib]", 107),
    ("Cl.NCC(O)C1CCCCCCC1 (centres undefined) [2-Cyclooctyl-2-hydroxyethylamine hydrochloride]", 97.1),
    ("N#CC(=Cc1ccc(O)c(O)c1)C(=O)NCCc1ccccc1 [Tyrphostin AG 698]", 87.8),
]

Given the entry CC1COC2=C1C(=O)C(=O)c1c2ccc2c1CCCC2(C)C (centres undefined) [Cryptotanshinone] , report its measured H1.0 immunofluorescence intensity.
106

What does the record list as H1.0 immunofluorescence intensity for C=C1CCC2OC2(C)CCC2C1CC2(C)C (centres undefined) [Caryophylline] ?
105

I am curious: what H1.0 immunofluorescence intensity value has been reported for CN(C)c1ccc(C2Nc3ccc4ccccc4c3C3=C2C(=O)CC(C)(C)C3)cc1Br (centres undefined) ?
113

Suppose we examine the compound CS(=O)(=O)O.CSc1ccc2c(c1)C(N1CCN(C)CC1)Cc1ccccc1S2 (centres undefined) [Methiothepin mesylate] ; what H1.0 immunofluorescence intensity value has been reported?
111
